B1: EHEE_rd2_1257 (parent)
chain: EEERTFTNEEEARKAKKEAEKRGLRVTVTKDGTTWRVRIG

- Variants of: B1
- Assay Remarks: folding stability dG (cDNA display proteolysis); higher = more stable
- Particulars: PBS, room temperature
Measured Endpoint: folding stability dG (kcal/mol)
Report as a plain number; the unit kcal/mol is understood.

>  <Biosequence>
EEARTFTNEEEARKAKKEAEKRGLRVTVTKDGTTWRVRIG [E3A]

>  <folding stability dG [kcal/mol]>
1.34

$$$$

Query: Item EEERTFTNEQEARKAKKEAEKRGLRVTVTKDGTTWRVRIG [E10Q] has what recorded folding stability dG?
Reply: 2.03

Query: Item EEERTFTNEEEMRKAKKEAEKRGLRVTVTKDGTTWRVRIG [A12M] has what recorded folding stability dG?
Reply: 2.08

Query: Item EEERTFTNEEEARKAEKEAEKRGLRVTVTKDGTTWRVRIG [K16E] has what recorded folding stability dG?
Reply: 2.31

Query: Item EEERTFTNEEEARKAKKEAEKRGLRVTVEKDGTTWRVRIG [T29E] has what recorded folding stability dG?
Reply: 1.87
